Measured values drawn from ChEMBL document CHEMBL5113474 for this set.

# Tested on: Bacteria
# ASSAY NAME: Inhibition of bacterial beta-lactamase KPC-2 expressed in Escherichia coli BL21 (DE3) using nitrocefin as substrate at 1 uM by spectrophotometric analysis relative to control
Mark 1 for reported inhibition of 30% or greater; mark -1 for anything smaller.

>>> answer_label("OB(O)c1cccc(Cn2cc(-c3ccccc3)nn2)c1")
1
>>> answer_label("OB(O)c1cccc(-n2cc(-c3cccs3)nn2)c1")
-1
>>> answer_label("OB(O)c1cc(-n2cc(-c3ccsc3)nn2)ccc1F")
1
>>> answer_label("[N-]=[N+]=Nc1cccc(B(O)O)c1")
1
>>> answer_label("O=C(O)c1cn(Cc2cccc(B(O)O)c2)nn1")
-1
